tested on: DMS 114 small cell lung; assay: NCI tumour cell line growth inhibition, 48 h
Listing of entries alongside the reported TGI.

Any idea what its TGI is? The molecule is CCC1=C(C)/C(=C/c2[nH]c(CBr)c(CC)c2C)N=C1CBr
27.8 µM

Could you do the same for CCOc1ccccc1N=Nc1c(-c2ccccc2)nn(C(=O)CC(=O)Nc2cccc(Cl)c2)c1-c1ccccc1 , please?
> 100 µM

Could you do the same for Cc1ccccc1NC(=O)C(=O)C(c1cnc2ccc([N+](=O)[O-])cc2n1)[N+](=O)[O-] (stereo not given) , please?
> 100 µM

Could you do the same for C/C=C/C=N/N(C(=O)c1cc([N+](=O)[O-])cc([N+](=O)[O-])c1)C1=NC(c2ccccc2)C(c2ccccc2)=NN1 (stereo not given) , please?
48.4 µM

Could you do the same for C[C@@H](CO)OCOCc1ccccc1 , please?
> 100 µM
